Readings of IC50 (µg/ml) with constrains for the listed binders
# Test system: HIV Env of isolate Ce1176_A3 (clade C) (HIV)
# Measurement protocol: cell-based or functional assay

Which measured IC50 (µg/ml) with constrains value corresponds to ePGDM5 (antibody, V domains shown) VH: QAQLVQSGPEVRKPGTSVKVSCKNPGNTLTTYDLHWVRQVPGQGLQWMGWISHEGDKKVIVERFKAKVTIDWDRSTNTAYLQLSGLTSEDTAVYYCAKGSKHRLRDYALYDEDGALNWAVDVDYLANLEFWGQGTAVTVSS VL: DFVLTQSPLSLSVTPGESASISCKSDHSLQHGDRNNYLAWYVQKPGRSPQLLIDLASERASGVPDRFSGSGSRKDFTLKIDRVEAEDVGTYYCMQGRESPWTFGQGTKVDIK ? 0.022 µg/mL

More entries:
Which measured IC50 (µg/ml) with constrains value corresponds to PGDM1400 (antibody, V domains shown) VH: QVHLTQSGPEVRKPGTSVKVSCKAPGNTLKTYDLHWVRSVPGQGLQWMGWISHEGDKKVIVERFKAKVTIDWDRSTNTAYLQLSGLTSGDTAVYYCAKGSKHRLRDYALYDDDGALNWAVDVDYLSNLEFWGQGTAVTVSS VL: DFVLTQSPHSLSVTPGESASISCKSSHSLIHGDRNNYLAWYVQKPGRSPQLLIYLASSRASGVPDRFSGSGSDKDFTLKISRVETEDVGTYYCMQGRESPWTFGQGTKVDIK ? 0.526 µg/mL

Item: ePGDM13 (antibody, V domains shown) VH: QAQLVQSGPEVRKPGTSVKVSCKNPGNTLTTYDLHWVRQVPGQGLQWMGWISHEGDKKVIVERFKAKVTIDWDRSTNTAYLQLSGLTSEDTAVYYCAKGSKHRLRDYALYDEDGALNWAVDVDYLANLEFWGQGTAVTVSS VL: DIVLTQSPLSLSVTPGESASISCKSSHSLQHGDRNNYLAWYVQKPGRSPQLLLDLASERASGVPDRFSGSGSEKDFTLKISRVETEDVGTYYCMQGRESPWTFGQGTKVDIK 0.031 µg/mL

Item: ePGDM9 (antibody, V domains shown) VH: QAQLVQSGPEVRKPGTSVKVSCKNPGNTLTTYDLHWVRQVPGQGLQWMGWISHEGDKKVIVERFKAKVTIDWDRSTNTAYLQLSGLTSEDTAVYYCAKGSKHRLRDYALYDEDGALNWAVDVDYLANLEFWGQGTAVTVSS VL: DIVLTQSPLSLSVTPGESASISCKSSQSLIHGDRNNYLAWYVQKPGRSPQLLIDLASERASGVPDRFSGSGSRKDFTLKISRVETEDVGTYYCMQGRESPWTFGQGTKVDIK 0.022 µg/mL

Hello, the source for this data is patent US20230134571A1, in case you need it.
